Assay: Monitoring of the plasma concentration of the main oligosaccharides of a VLMWH in human volunteers (plasma filtration + anion-exchange HPLC)
Assay type: in vivo
Settings: 0.75 h after administration of VLMWH (2500 Da) 1.4 mg/kg
readout.type: plasma concentration (nM)

O=C(O)C1=CC(O)C(OS(=O)(=O)O)C(OC2C(COS(=O)(=O)O)OC(O)C(NS(=O)(=O)O)C2O)O1 (centres unmarked): 260
O=C(O)C1=CC(O)C(OS(=O)(=O)O)C(OC2C(COS(=O)(=O)O)OC(OC3C(C(=O)O)OC(OC4C(COS(=O)(=O)O)OC(O)C(NS(=O)(=O)O)C4O)C(OS(=O)(=O)O)C3O)C(NS(=O)(=O)O)C2O)O1 (centres unmarked): 210
CC(=O)NC1C(OC2C(C(=O)O)OC(OC3C(COS(=O)(=O)O)OC(OC4C(C(=O)O)OC(OC5C(COS(=O)(=O)O)OC(OC6C(C(=O)O)OC(OC7C(COS(=O)(=O)O)OC(O)C(NS(=O)(=O)O)C7O)C(OS(=O)(=O)O)C6O)C(NS(=O)(=O)O)C5O)C(OS(=O)(=O)O)C4O)C(NS(=O)(=O)O)C3OS(=O)(=O)O)C(O)C2O)OC(COS(=O)(=O)O)C(OC2OC(C(=O)O)=CC(O)C2O)C1O (centres unmarked): 20
O=C(O)C1=CC(O)C(OS(=O)(=O)O)C(OC2C(COS(=O)(=O)O)OC(OC3C(C(=O)O)OC(OC4C(COS(=O)(=O)O)OC(OC5C(C(=O)O)OC(OC6C(COS(=O)(=O)O)OC(O)C(NS(=O)(=O)O)C6O)C(OS(=O)(=O)O)C5O)C(NS(=O)(=O)O)C4O)C(OS(=O)(=O)O)C3O)C(NS(=O)(=O)O)C2O)O1 (centres unmarked): 30
CC(=O)NC1C(OC2C(C(=O)O)OC(OC3C(COS(=O)(=O)O)OC(OC4C(C(=O)O)OC(OC5C(COS(=O)(=O)O)OC(O)C(NS(=O)(=O)O)C5O)C(OS(=O)(=O)O)C4O)C(NS(=O)(=O)O)C3OS(=O)(=O)O)C(O)C2O)OC(COS(=O)(=O)O)C(OC2OC(C(=O)O)=CC(O)C2O)C1O (centres unmarked): 100

Origin of measurements: patent US7575930B2
